assay: mutant yeast GCN4 reporter luminescence inhibitors – S. cerevisiae, eIF2B-epsilon R284H, Beta-Glo luminescence, primary screen (AID 688); conditions: GCN4-lacZ luminescence, screened at 25 µM (by protocol)
Hit rate of the full screen: of about 27,000 compounds, about 250 (0.93%) were called active.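 The calls were made as follows: active = mutant luminescence inhibited past about 50% while wild type luminescence and mutant growth stay under set limits (limit read from the data); inconclusive = mutant versus wild type luminescence inhibition gap past a set limit; inactive = the rest.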 This is one part of a sample in which actives are shown more often than they occur.
Outcome codes: T = active, F = inactive

>>> group("CCC(=O)N(Cc1cc2cc(OC)ccc2[nH]c1=O)c1ccccc1C")
"F"
>>> group("Cc1noc(NS(=O)(=O)c2ccc(NC(=O)C34CCC(CC3)C4)cc2)c1C")
"F"
>>> group("CCN(CC(=O)NC1CCS(=O)(=O)C1)c1nc(-c2cccnc2)nc2ccccc12 (centres undefined)")
"F"
>>> group("CCCCCCSc1nsc(N)n1")
"F"
>>> group("CC(=O)OCc1cc2cc(C)ccc2[nH]c1=O")
"F"
>>> group("OCCN1CCOCCOCCN(CCO)CCN(CCO)CC1")
"F"
>>> group("O=C(NCC(=O)N(Cc1cccs1)C(C(=O)NC1CCCCC1)c1ccco1)c1cccs1 (centres undefined)")
"F"
>>> group("Cc1cc(N2CCN(S(=O)(=O)c3ccc(C)c(C)c3)CC2)c2ccccc2n1")
"F"
>>> group("Cc1cc(=O)oc(C)c1C(=O)Nc1cnc2ccccc2c1")
"F"
>>> group("O=c1[nH]c2c(c(=O)n1Cc1ccccc1)CCC2")
"F"
>>> group("CC(=O)NC1(c2cccc(F)c2)CCN(CC(=O)NC(C)C)CC1")
"F"
>>> group("Oc1ccc2ccc3cccc[n+]3c2c1")
"T"
>>> group("N=c1c2c3c(sc2ncn1CCCN1CCOCC1)CCCCC3")
"F"
>>> group("O=C(c1ccc2c(c1)OCO2)N1CCN(C(=O)c2ccco2)CC1")
"F"
>>> group("Cc1c(Nc2nc3ccccc3nc2NS(=O)(=O)c2cccs2)c(=O)n(-c2ccccc2)n1C")
"F"
>>> group("COc1ccc(-c2cc(C(=O)NCc3ccco3)no2)cc1OC")
"F"
>>> group("N#CCSc1nc2c(c(=O)n1Cc1ccccc1)C1(CCCC1)Cc1ccccc1-2")
"F"
>>> group("O=C(NC(C(=O)NCCN1CCOCC1)C12CC3CC(CC(C3)C1)C2)C1CCCCC1 (centres undefined)")
"F"
>>> group("O=c1[nH][nH]c(C(F)(F)F)c1C=NCc1ccccc1Cl")
"F"
>>> group("Cc1nc(N2CCOCC2)nc2c1CCCC2")
"F"
>>> group("CCC(C)NC(=O)CCCc1ccccc1 (centres undefined)")
"F"
>>> group("O=C1CCCc2nn(-c3ccccc3)nc21")
"F"
>>> group("C=CCn1c(SCCOc2ccc(OC)cc2)nnc1C(NC(=O)c1ccc(OC)cc1)C(C)C (centres undefined)")
"F"
>>> group("O=C(Nc1ccc(S(=O)(=O)N2CCCC2)cc1Cl)C1=COCCO1")
"F"

----------
assay: mutant yeast GCN4 reporter luminescence inhibitors – S. cerevisiae, eIF2B-epsilon R284H, Beta-Glo luminescence, primary screen (AID 688); conditions: GCN4-lacZ luminescence; stronger effect = higher value, screened at 25 µM (by protocol)
Out of some 27,000 compounds screened, about 250 (0.93%) were called active. The list comes from a sample in which actives are over-represented; it also holds close analogues and randomly drawn compounds.
Quick rule: inhibition of at least 20% means criterion met, below that means criterion not met.

>>> group("CCN(CC(=O)Nc1ccccc1OC)C(=O)Cn1cnc2ccccc2c1=O")
"criterion not met"
>>> group("COc1ccc(Cl)cc1C(=O)Nc1ccc(N(C)C(C)=O)cc1")
"criterion met"
>>> group("CC1=C(C(=O)Nc2ccccc2)C(c2ccco2)C(C#N)=C(SCC(N)=O)N1 (stereo unspecified)")
"criterion not met"
>>> group("CCOC(=O)CN1C(=O)C(=O)c2cc(C)ccc21")
"criterion met"
>>> group("CCCCOc1ccc(NC(=O)CSCC(=O)OCC)cc1")
"criterion met"
>>> group("Cc1c(C(=O)CN2CCOCC2)[nH]c2ccccc12")
"criterion not met"

----------
experiment: mutant yeast GCN4 reporter luminescence inhibitors – S. cerevisiae, eIF2B-epsilon R284H, Beta-Glo luminescence, primary screen (AID 688); conditions: GCN4-lacZ luminescence; measured here: mutant yeast growth, toxicity, concentration not given here
In all, about 27,000 compounds went through this assay and about 250 (0.93%) were called active. The sample holds actives, similar compounds and a random draw of the others, so the mix is not that of the screen.
Classification field: enter yes (1) for growth inhibition values not below 10%, no (0) for values below it.

>>> group("COc1ccc(Cl)cc1C(=O)Nc1ccc(N(C)C(C)=O)cc1")
"yes (1)"
>>> group("CCCC(C)C(=O)Nc1ccc(NC(C)=O)cc1 (stereo not given)")
"no (0)"
>>> group("O=C(COc1ccccc1Cl)Nn1cnnc1")
"no (0)"
>>> group("O=C(c1ccc2c(c1)OCO2)N1CCN(C(=O)c2ccco2)CC1")
"yes (1)"
>>> group("CCCCNC(=O)CCNC(=O)c1ccc(C(C)(C)C)cc1")
"yes (1)"
>>> group("CC(C)n1c(-c2cccs2)nc2ccccc21")
"yes (1)"
>>> group("CCOC(=O)CSc1nnc(CNc2ccc(F)cc2)o1")
"no (0)"
>>> group("CCCSC1=C(C#N)C(c2ccccc2C)C(C(=O)OC)C(=O)N1 (stereo not given)")
"yes (1)"
>>> group("COc1ccccc1NC(=O)CC(NCCN(C)C)C(=O)O (stereo not given)")
"yes (1)"
>>> group("CC(=O)NC1=NN(C(C)=O)C(C)(c2ccc(Cl)s2)S1 (stereo not given)")
"no (0)"
>>> group("CCC(=O)N(Cc1cc2cc(OC)ccc2[nH]c1=O)c1ccccc1C")
"no (0)"
>>> group("O=C(O)CCSc1nnc(-c2ccccc2)n1-c1ccccc1")
"no (0)"
>>> group("CCOc1ccc(S(=O)(=O)NCC2CCCO2)cc1 (stereo not given)")
"no (0)"
>>> group("CCCc1nc(-c2ccccc2O)n(-c2ccccc2)n1")
"yes (1)"
>>> group("CCOC(=O)c1c(N)sc(C(C)=O)c1C")
"yes (1)"
>>> group("CC(C)C(=O)Nc1nnc(Sc2ccc(N(C)C)cc2)s1")
"no (0)"
>>> group("Cc1cccc(N2C(=O)c3cccnc3C2=O)c1")
"no (0)"
>>> group("CCc1c(-c2ccccc2)nc(N)c(C#N)c1-c1cccs1")
"no (0)"
>>> group("O=C(c1cccc2ccccc12)N1CCN(c2ccccc2F)CC1")
"yes (1)"
>>> group("CCc1nnc(NC(=O)CSc2nc3ccccc3c(=O)n2CCCOC)s1")
"no (0)"
>>> group("Cc1cccc(C)c1NC(=O)CCCSc1nnc(-c2ccco2)n1-c1ccccc1")
"yes (1)"
>>> group("COc1ccc(-c2nnc(SCC(=O)c3ccc4c(c3)OCCO4)o2)cc1")
"no (0)"
>>> group("CCNC(=O)CN(c1ccc(C)cc1)S(=O)(=O)c1ccc(SC)cc1")
"yes (1)"
>>> group("Cc1cccc(NC(=O)C2CC(=O)OC23CCCC3)c1 (stereo not given)")
"yes (1)"
>>> group("c1ccc(CCc2nc(-c3ccncc3)no2)cc1")
"yes (1)"

----------
assay: mutant yeast GCN4 reporter luminescence inhibitors – S. cerevisiae, eIF2B-epsilon R284H, Beta-Glo luminescence, primary screen (AID 688); details: GCN4-lacZ luminescence; measured here: mutant yeast growth, toxicity, concentration not given here
Screen size: about 27,000 compounds; about 250 (0.93%) were called active. The entries come from a sample that favours actives as a whole.
Property: growth inhibition (%)

>>> endpoint_result("CCOc1ccc(N=C2SC(C(=O)O)CC(=O)N2C)cc1 (stereo unspecified)")
12
>>> endpoint_result("COCCNS(=O)(=O)c1cc(Br)ccc1OC")
9.09
>>> endpoint_result("Cc1cccc(NC(=O)/C(=C\\c2ccco2)NC(=O)c2ccccc2)c1")
10.8
>>> endpoint_result("O=P(O)(CP(=O)(c1ccccc1)c1ccccc1)c1ccccc1")
3.57
>>> endpoint_result("COc1ccc(-n2c(SCC(=O)Nc3ccc4c(c3)OCO4)nnc2C(C)N2CCCCC2)cc1 (stereo unspecified)")
-17.2
>>> endpoint_result("C/C=C/C(=O)OCC(=O)Nc1ccc(F)cc1Cl")
-4.76

----------
test: mutant yeast GCN4 reporter luminescence inhibitors – S. cerevisiae, eIF2B-epsilon R284H, Beta-Glo luminescence, primary screen (AID 688); conditions: GCN4-lacZ luminescence; stronger effect = higher value, screened at 25 µM (by protocol)
Screen size: about 27,000 compounds; about 250 (0.93%) were called active. The entries come from a sample that favours actives as a whole.
Label rule, in plain words: inhibition of 20% and up is 1, under 20% is -1.

>>> group("CCCCNS(=O)(=O)c1ccc(S(=O)(=O)n2cnc3ccccc32)cc1")
-1
>>> group("CN(Cc1nc2ccccc2c(=O)[nH]1)Cc1cc(=O)oc2ccc3ccccc3c12")
-1
>>> group("Cc1ccc(-c2nnn(CC(=O)N(CCO)C(C(=O)NC(C)(C)C)c3ccncc3)n2)cc1 (stereo unspecified)")
1
>>> group("CCCCNC(=O)CCNC(=O)c1ccc(C(C)(C)C)cc1")
1
>>> group("Cc1nc(NC(=O)CN(C)S(=O)(=O)c2ccc(Cl)cc2)sc1C")
-1
>>> group("CCn1nccc1C(=O)Nc1ccc(Cl)c(Cl)c1")
1
>>> group("CCCCOC(=O)Cn1c(=N)n(CCN(CC)CC)c2ccccc21")
-1
>>> group("CCCSC1=C(C#N)C(c2ccccc2C)C(C(=O)OC)C(=O)N1 (stereo unspecified)")
-1
>>> group("O=C(Nc1ccc(Br)cc1)c1cccc(NC(=O)C2C3CC4OC(=O)C2C4C3)c1 (stereo unspecified)")
1
>>> group("Cc1ccc(S(=O)(=O)c2nc(NCCCn3ccnc3)sc2Cl)cc1")
1
>>> group("Cc1[nH][nH]c(=O)c1N=Nc1ccccc1")
1
